Attribution: ChEMBL document CHEMBL1201862

Entries and their GI50 values follow.
Tested on: EKVX
test: NCI tumour cell line growth inhibition, 48 h
The source made the active and inactive calls. Rule as the data show it: active = GI50 up to about 1.1 µM and inactive = higher.

- compound: "CN(C)CCNC(=O)Cc1ccccc1Nc1c(Cl)cccc1Cl"
  GI50: "17.4 µM (inactive)"
- compound: "COC(=O)/C(C#N)=C(\\Nc1ccccc1)N1CCOCC1"
  GI50: "> 100 µM (inactive)"
- compound: "CCOP(=Nc1ccc(N(C)C)cc1)(OCC)OCC"
  GI50: "> 100 µM (inactive)"
- compound: "NC(=O)c1csc(C2O[C@@H](COP(=O)(O)OP(=O)(O)OC[C@H]3OC(n4cnc5c(N)ncnc54)[C@H](O)[C@@H]3O)[C@H](O)[C@@H]2O)n1 (stereo not given in full)"
  GI50: "> 100 µM (inactive)"
- compound: "O=C1c2ccccc2C(=O)N1CCCC(=O)n1cc(F)c(=O)[nH]c1=O"
  GI50: "> 58.3 µM (inactive)"

---

Tested on: COLO 205
test: NCI tumour cell line growth inhibition, 48 h
Calls of active or inactive are those of the source. No stated cut-off is given here; in the data, active = GI50 up to about 1.1 µM and inactive = higher.
property-label: GI50

- compound: "O=C(Cn1c2ccc(Br)cc2c2nc3ccccc3nc21)Nc1ccccc1"
  property-label: "GI50"
  observed: "50.6 µM (inactive)"
- compound: "Cc1ccc2nc(CN3CCCC(O)C3)cc(=O)n2c1 (stereo not drawn)"
  property-label: "GI50"
  observed: "> 100 µM (inactive)"
- compound: "Cc1ccc(S(=O)(=O)N/N=C2/CCC(C(C)(C)C)CC2Br)cc1 (stereo not drawn)"
  property-label: "GI50"
  observed: "27.2 µM (inactive)"
- compound: "CN(C)/C=N\\c1cc[nH]c(=O)n1"
  property-label: "GI50"
  observed: "> 100 µM (inactive)"
- compound: "CN1C(c2ccccc2)CC(O)CC1c1ccccc1 (stereo not drawn)"
  property-label: "GI50"
  observed: "> 100 µM (inactive)"
- compound: "Cc1c(-c2nnc(-c3ccccc3)o2)c(=O)n(-c2ccccc2)n1C"
  property-label: "GI50"
  observed: "> 100 µM (inactive)"
- compound: "C=CC1(CC)/C(=N\\O)C(CC)(CC)C(=O)N1O (stereo not drawn)"
  property-label: "GI50"
  observed: "> 100 µM (inactive)"
- compound: "COC(=O)c1c(O)ccc2c1c1c(n2Cc2ccccc2)C(=O)c2ccccc2C1"
  property-label: "GI50"
  observed: "15.4 µM (inactive)"
- compound: "CCCCCC1=CC(=O)C1(Cl)Cl"
  property-label: "GI50"
  observed: "12.2 µM (inactive)"
- compound: "O=C(Nc1ccccc1)n1[nH]c(=O)n(-c2ccccc2)c1=O"
  property-label: "GI50"
  observed: "> 100 µM (inactive)"
- compound: "N=C(N)SCc1ccc2c(c1)S(=O)(=O)c1ccccc1O2"
  property-label: "GI50"
  observed: "29 µM (inactive)"
- compound: "N=C(N)Nc1ccc(-c2ccc(NC(=N)N)cc2)cc1"
  property-label: "GI50"
  observed: "21.5 µM (inactive)"
- compound: "COc1cccc(/C=N/[N+](C)(C)C)c1O"
  property-label: "GI50"
  observed: "> 10 µM (inactive)"

---

System: XF498
test: NCI tumour cell line growth inhibition, 48 h
The source made the active and inactive calls. Rule as the data show it: active = GI50 up to about 1.1 µM and inactive = higher.
Outcome codes: Yes = active, No = inactive

- molecule: "CN(C)/C(F)=P\\C(F)(F)F (stereo not given)"
  group-label: "No"
- molecule: "COC(=O)c1c[nH]cc1CCc1c[nH]cc1C(=O)OC"
  group-label: "No"
- molecule: "NC(=S)N/N=C1\\CC(c2ccccc2)Nc2ccccc21 (stereo not given)"
  group-label: "No"
- molecule: "COC(=O)C1CC/C(=N/c2ccc(C)cc2C)N1 (stereo not given)"
  group-label: "No"
- molecule: "Cc1ccc(NC(=O)CC2C(=O)Nc3ccccc3S2(=O)=O)cc1C (stereo not given)"
  group-label: "No"
- molecule: "O=C(O)c1cc(Cl)cc(NC(=O)C(Cl)Cl)c1Cl"
  group-label: "No"
- molecule: "O=NN(CCCl)C(=O)N[C@H]1CC[C@H](C(=O)O)CC1"
  group-label: "No"
- molecule: "CC(c1ccc2c(c1)CCC1C2CC2OC23CC=CC(=O)[C@]13C)C1C[C@]2(C)O[C@]2(C)[C@H](O)O1 (stereo not given in full)"
  group-label: "No"
- molecule: "O=P(CCOc1ccccc1OCCP(=O)(c1ccccc1)c1ccc2c(c1)OCCOCCOCCOCCO2)(c1ccccc1)c1ccc2c(c1)OCCOCCOCCOCCO2 (stereo not given)"
  group-label: "No"
- molecule: "N#Cc1cn(C2OC(CO)C(O)C2O)c2ncnc(N)c12 (stereo not given)"
  group-label: "Yes"
- molecule: "CC1=C(C)C(=O)O[C@@H]([C@](C)(O)[C@]2(O)CC[C@@]3(O)[C@@H]4C[C@H]5O[C@]56[C@@H](O)C=CC(=O)[C@]6(C)[C@H]4CC[C@]23C)C1"
  group-label: "Yes"
- molecule: "COc1ccc(Cc2nc3ccccc3s2)cc1OC"
  group-label: "No"
- molecule: "NC(=O)c1ncn2c1NC(=O)CC2"
  group-label: "No"
- molecule: "C=C1C(=O)C[C@@]23CCC[C@@]12CC(OCOC)C3 (stereo not given in full)"
  group-label: "No"
- molecule: "CCOC(=N)CC(=O)Nc1ccccc1CC"
  group-label: "No"
- molecule: "CC(=O)OCC1OC(Sc2ccccn2)C=CC1OC(C)=O (stereo not given)"
  group-label: "No"
- molecule: "COC(=O)C1=C(C=O)C2C=CC1C2 (stereo not given)"
  group-label: "No"
- molecule: "COc1cc(C2C(Cl)C(=O)N2NC(=O)c2ccc(N)cc2)ccc1O (stereo not given)"
  group-label: "No"
- molecule: "Cc1cc2c(c(C(N)=O)c1C)-c1cccc(Cl)c1C2=O"
  group-label: "No"
- molecule: "COc1ccc(O)c(C#N)c1C#N"
  group-label: "No"

---

Tested on: DU-145
test: NCI tumour cell line growth inhibition, 48 h
Activity calls are given as the source filed them. No stated cut-off is given here; in the data, active = GI50 up to about 1.1 µM and inactive = higher.
Outcome codes: true (1) = active, false (0) = inactive

- smiles-entry: "Cc1c(CN2CCN(C)CC2)c(CN2CCN(C)CC2)c(C)n1-c1ccc(Cl)cc1"
  tested-system: "DU-145"
  group-label: "false (0)"
- smiles-entry: "COc1cccc2c1/c(=C/c1ccc(N(C)C)cc1)c1cc(-c3ccccc3)[n+](C)n12"
  tested-system: "DU-145"
  group-label: "true (1)"
- smiles-entry: "CC1=CC(=O)[C@@H](O)[C@]2(C)[C@H]3[C@@]4(O)OC[C@]35[C@H]([C@@H](C)[C@H]4O)[C@@H](OC(=O)C(C)(C)CO)C(=O)O[C@@H]5C[C@@H]12"
  tested-system: "DU-145"
  group-label: "true (1)"
- smiles-entry: "CC(=O)n1c2ccc(Br)cc2c2nc3ccccc3nc21"
  tested-system: "DU-145"
  group-label: "false (0)"
- smiles-entry: "CCN(CC)CCCNC(=O)c1cc(-c2nccn2C)nc2ccccc12"
  tested-system: "DU-145"
  group-label: "false (0)"
- smiles-entry: "COc1cc(Br)cc2cc(C3=CSC4=NCCN34)c(=O)oc12"
  tested-system: "DU-145"
  group-label: "false (0)"
- smiles-entry: "O=[As](O)(O)c1ccc(Cc2ccc([As](=O)(O)O)cc2)cc1"
  tested-system: "DU-145"
  group-label: "true (1)"
- smiles-entry: "CCOC(=O)c1c(O)nc2cccc3c2c1-c1cccnc1S3"
  tested-system: "DU-145"
  group-label: "false (0)"
- smiles-entry: "O=C(/C=C/c1ccc(Cl)cc1)Oc1ccc(/C=C2\\CCCCC2=O)cc1"
  tested-system: "DU-145"
  group-label: "false (0)"
- smiles-entry: "O=C(NNS(=O)(=O)c1ccccc1)c1csc(NC(=S)NC2CCCCC2)n1"
  tested-system: "DU-145"
  group-label: "false (0)"

---

Tested on: SN12C
test: NCI tumour cell line growth inhibition, 48 h
The source made the active and inactive calls. Rule as the data show it: active = GI50 up to about 1.1 µM and inactive = higher.
Entries and their GI50 values follow.

- compound: "COC(=O)c1c[nH]cc1CCc1c[nH]cc1C(=O)OC"
  GI50: "> 100 µM (inactive)"
- compound: "CC(C)(CO)CNc1nc(N)nc(Cl)c1/C=N/O"
  GI50: "72.4 µM (inactive)"
- compound: "O=C(Nc1ccccc1)n1[nH]c(=O)n(-c2ccccc2)c1=O"
  GI50: "> 100 µM (inactive)"
- compound: "COC1CC(C)([N+](=O)[O-])C(O)C(C)O1 (stereo not given)"
  GI50: "> 100 µM (inactive)"
- compound: "N#Cc1cc([N+](=O)[O-])ccc1NC(=O)/C(=N/N)C(C(=O)c1ccc(Cl)c(Cl)c1)C1OC(=O)c2ccccc21 (stereo not given)"
  GI50: "90.8 µM (inactive)"
